Entry source: the SangsterLogP compilation

// map logP to label using low-valued: < 2; mid-valued: ≥ 2 and < 3; high-valued: ≥ 3

# compoundSmiles, group
rows = [
    ("O=C(O)CCCc1ccccc1", "mid-valued"),
    ("Nc1ccc(-c2ccc(N)cc2)cc1", "low-valued"),
    ("CCCc1cc(NC(C)=O)cc(CCC)c1O", "high-valued"),
    ("CCCCOC(=O)c1ccc(O)cc1", "high-valued"),
    ("OCC(Cl)(Cl)Cl", "low-valued"),
    ("CCOC(=O)c1ccc(O)cc1", "mid-valued"),
    ("NCCc1c[nH]c2ccccc12", "low-valued"),
    ("CC(C)(c1ccc(O)cc1)c1ccc(O)cc1", "high-valued"),
    ("Cc1cn([C@H]2C=C[C@@H](CO)O2)c(=O)[nH]c1=O", "low-valued"),
    ("OCCCc1ccccc1", "low-valued"),
    ("ClCCl", "low-valued"),
    ("O=C(O)c1ccc(N=C=S)cc1", "high-valued"),
    ("CN(C)C(=O)COc1ccccc1", "low-valued"),
    ("C#C[C@]1(O)CC[C@H]2[C@@H]3CCc4cc(O)ccc4[C@H]3CC[C@@]21C", "high-valued"),
    ("O=C(O)c1c(O)cccc1O", "mid-valued"),
    ("O=C(O)Cc1ccc(I)cc1", "mid-valued"),
]

---

observable: logP

# compound, number
data = [
    ("COC", 0.1),
    ("NC(=O)c1ccc([N+](=O)[O-])cc1", 0.82),
    ("O=[N+]([O-])c1cccc2ccccc12", 3.19),
    ("O=[N+]([O-])c1ccc2c(c1)c([N+](=O)[O-])cc[n+]2[O-]", 0.9),
    ("CC[C@H](C)N", 0.74),
    ("Nc1ccc(S(=O)(=O)Nc2ccnn2-c2ccccc2)cc1", 1.52),
    ("CCN(C)C", 0.7),
    ("BrCBr", 1.7),
    ("CN(C)N=O", -0.57),
    ("c1ccc2nccnc2c1", 1.32),
    ("COc1cccc(CC(C)N)c1OC (stereo not given)", 1.49),
    ("CCOC(=O)C1(c2ccccc2)CCN(C)CC1", 2.72),
    ("Cn1c(CO)cnc1[N+](=O)[O-]", -0.03),
    ("O=C(O)C(c1ccccc1)c1ccccc1", 3.09),
    ("O=C(O)COC1Cc2ccccc2C1", 2.33),
    ("CCc1ccccn1", 1.69),
    ("CCCNCCC", 1.67),
    ("c1cn[nH]c1", 0.26),
    ("COC(=O)C(C#N)=NNc1c(Cl)cc(C(F)(F)F)cc1Cl", 4.36),
    ("O=S(=O)(c1ccccc1)c1ccccc1", 2.4),
    ("C1CNCCN1", -1.5),
    ("Cc1cccc(C)c1", 3.2),
    ("CN(C)C", 0.16),
    ("CCCC[N+](=O)[O-]", 1.47),
    ("O=C(O)c1ccc(O)cc1O", 1.63),
    ("CSc1nnc(CCC(C)C)c(=O)n1N", 1.85),
    ("CN(c1ccccc1)c1ccccc1", 3.9),
    ("COc1ccccc1O", 1.32),
    ("c1cncnc1", -0.4),
    ("NC(=O)c1ccc(Cl)cc1", 1.55),
    ("Cc1ccccc1S(N)(=O)=O", 0.84),
    ("CN(N=O)C(N)=O", -0.03),
    ("NC(=O)Cc1ccccn1", -0.65),
    ("CCCN(CC)CCC", 2.68),
    ("N=c1[nH]c(=O)c2ncn([C@@H]3C=C[C@@H](CO)O3)c2[nH]1", -1.21),
]
